# Method description: DPPH radical scavenging activity assay
# Format: biochemical
# Condition info: 72.6 ppm; 0.2 mmol/L DPPH, 30 min, room temperature, dark, absorbance at 517 nm
// reported Scavenging activity (%) per item
Measured quantity: Scavenging activity (%)

Compound: O=C1O[C@H]([C@@H](O)CO)C(O)=C1O [Vitamin C, vitamin C]
Obs value: 97.58
--
Compound: O=C(CCCC[C@@H]1CCSS1)OCC1OC(Oc2cc3ccc(=O)oc3cc2O)C(O)C(O)C1O (stereo partly shown) [Aesculin lipoic acid ester, aesculin lipoic acid ester]
Obs value: 83.5
--
Compound: O=C(O)CCCC[C@@H]1CCSS1 (racemic) [Lipoic acid]
Obs value: 2.47
--
Compound: O=c1ccc2cc(O[C@@H]3O[C@H](CO)[C@@H](O)[C@H](O)[C@H]3O)c(O)cc2o1 [Aesculin]
Obs value: 8.12

###

Quick reference: Scavenging activity (%) of the listed items.
# Method description: DPPH radical scavenging activity assay
# Assay type: biochemical
# Condition info: 7.28 ppm; 0.2 mmol/L DPPH, 30 min, room temperature, dark, absorbance at 517 nm
Measured quantity: Scavenging activity (%)

Molecule: O=C(O)CCCC[C@@H]1CCSS1 (racemic)
Measured quantity: Scavenging activity (%)
Obs value: 1.14
--
Molecule: O=C(CCCC[C@@H]1CCSS1)OCC1OC(Oc2cc3ccc(=O)oc3cc2O)C(O)C(O)C1O (stereo partly shown)
Measured quantity: Scavenging activity (%)
Obs value: 42.73
--
Molecule: O=C1O[C@H]([C@@H](O)CO)C(O)=C1O
Measured quantity: Scavenging activity (%)
Obs value: 72.45
--
Molecule: O=c1ccc2cc(O[C@@H]3O[C@H](CO)[C@@H](O)[C@H](O)[C@H]3O)c(O)cc2o1
Measured quantity: Scavenging activity (%)
Obs value: 3.53

###

Measured Scavenging activity (%) of individual entries
# Method description: DPPH radical scavenging activity assay
# Assay type: biochemical
# Condition info: 96.8 ppm; 0.2 mmol/L DPPH, 30 min, room temperature, dark, absorbance at 517 nm
Measured quantity: Scavenging activity (%)

Molecule: O=c1ccc2cc(O[C@@H]3O[C@H](CO)[C@@H](O)[C@H](O)[C@H]3O)c(O)cc2o1
Unit descriptor: %
Obs value: 10.77
//
Molecule: O=C1O[C@H]([C@@H](O)CO)C(O)=C1O
Unit descriptor: %
Obs value: 97.77
//
Molecule: O=C(O)CCCC[C@@H]1CCSS1 (racemic)
Unit descriptor: %
Obs value: 3.81
//
Molecule: O=C(CCCC[C@@H]1CCSS1)OCC1OC(Oc2cc3ccc(=O)oc3cc2O)C(O)C(O)C1O (stereo partly shown)
Unit descriptor: %
Obs value: 89.73

###

# Method description: DPPH radical scavenging activity assay
# Type: biochemical
# Condition info: 968 ppm; 0.2 mmol/L DPPH, 30 min, room temperature, dark, absorbance at 517 nm
Measured quantity: Scavenging activity (%)

Compound: O=C(CCCC[C@@H]1CCSS1)OCC1OC(Oc2cc3ccc(=O)oc3cc2O)C(O)C(O)C1O (stereo partly shown)
Measured quantity: Scavenging activity (%)
Obs value: 96.94%
//
Compound: O=C(O)CCCC[C@@H]1CCSS1 (racemic)
Measured quantity: Scavenging activity (%)
Obs value: 21.88%
//
Compound: O=C1O[C@H]([C@@H](O)CO)C(O)=C1O
Measured quantity: Scavenging activity (%)
Obs value: 98.06%
//
Compound: O=c1ccc2cc(O[C@@H]3O[C@H](CO)[C@@H](O)[C@H](O)[C@H]3O)c(O)cc2o1
Measured quantity: Scavenging activity (%)
Obs value: 70.70%
